Let's look at some binders and their measured koff.
Molecular target: T1, human interleukin 12 (p70 heterodimer of p35 and p40) (human, UniProt P29459 23-219; P29460 23-328)
T1 construct: Recombinant human IL-12; also called hIL-12; IL-12
T1 sequence (looked up) 1: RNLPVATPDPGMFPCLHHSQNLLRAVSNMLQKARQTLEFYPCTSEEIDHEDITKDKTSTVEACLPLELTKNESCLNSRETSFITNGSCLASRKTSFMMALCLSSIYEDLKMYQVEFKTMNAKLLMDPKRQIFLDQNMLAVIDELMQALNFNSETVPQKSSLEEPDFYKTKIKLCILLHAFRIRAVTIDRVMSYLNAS
T1 sequence (looked up) 2: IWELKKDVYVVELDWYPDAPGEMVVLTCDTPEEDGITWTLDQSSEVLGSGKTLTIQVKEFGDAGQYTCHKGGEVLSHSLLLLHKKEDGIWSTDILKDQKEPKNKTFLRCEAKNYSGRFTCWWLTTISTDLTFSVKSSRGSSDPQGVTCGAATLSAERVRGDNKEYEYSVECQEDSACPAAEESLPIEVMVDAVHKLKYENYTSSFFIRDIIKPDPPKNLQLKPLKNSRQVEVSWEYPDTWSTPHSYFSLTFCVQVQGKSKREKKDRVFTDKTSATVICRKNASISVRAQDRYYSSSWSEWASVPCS
Test: SPR (BIAcore), off-rate
Please reply with the bare figure in s⁻¹ and do not write the unit itself.

SEQ ID NO: 481 (Y61, S at L31) (antibody, V domains shown) VH: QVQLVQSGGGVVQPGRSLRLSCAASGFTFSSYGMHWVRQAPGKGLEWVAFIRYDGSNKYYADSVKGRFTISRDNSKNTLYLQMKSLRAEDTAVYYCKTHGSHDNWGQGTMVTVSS VL: SYVLTQPPSVSGTPGQRVTISCSGGRSNIGSSTVKWYQQLPGTAPKLLIYGNDQRPSGVPDRFSGSKSGTSASLAITGVQAEDEADYYCQSYDRGTHPALLFGTGTKVTVLG :: 0.000392
SEQ ID NO: 488 (Y61, G at L31) (antibody, V domains shown) VH: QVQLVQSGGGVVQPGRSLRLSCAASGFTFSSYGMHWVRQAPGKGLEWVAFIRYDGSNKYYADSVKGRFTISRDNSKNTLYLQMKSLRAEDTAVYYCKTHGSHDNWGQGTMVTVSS VL: SYVLTQPPSVSGTPGQRVTISCSGGRSNIGSGTVKWYQQLPGTAPKLLIYGNDQRPSGVPDRFSGSKSGTSASLAITGVQAEDEADYYCQSYDRGTHPALLFGTGTKVTVLG :: 0.000366

Which measured koff value corresponds to SEQ ID NO: 499 (Y61, Q at L32) (antibody, V domains shown) VH: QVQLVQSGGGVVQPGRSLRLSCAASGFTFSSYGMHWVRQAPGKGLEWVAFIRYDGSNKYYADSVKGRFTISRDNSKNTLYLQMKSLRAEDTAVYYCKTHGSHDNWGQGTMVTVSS VL: SYVLTQPPSVSGTPGQRVTISCSGGRSNIGSNQVKWYQQLPGTAPKLLIYGNDQRPSGVPDRFSGSKSGTSASLAITGVQAEDEADYYCQSYDRGTHPALLFGTGTKVTVLG ?
0.00247

The measured values listed here are drawn from patent US20120219562A1.
